# measurement_target: Full length human CDC7 protein co-expressed with DBF4 (Homo sapiens)
# Construct: Full length human CDC7 protein co-expressed with DBF4; purchased SignalChem (China)
# protocol_details: CDC7 kinase biochemical assay (ADP-Glo, PDKtide substrate)
# measurement_setup: 0.1 nM CDC7/DBF4, 1 uM ATP, 10 uM PDKtide, 4 h; read-out: CDC7 ADP-Glo PDKtide IC50
recorded_endpoint: IC50

These recorded examples may help you get a feel for the data.
> print(dat)
                                   molecule                        measurement.target  recorded.endpoint      result
1  O=C1N[C@@H](Cn2cccn2)CN2CC(F)(F)Cc3c(-c4cn[nH]c4)sc1c32 [Compound 102]  Full length human CDC7 protein co-expressed with DBF4 (Homo sapiens)               IC50      < 1 nM
2  O=C1NC(C2CC(F)(F)C2)CN2CC(F)Cc3c(-c4cn[nH]c4)sc1c32 (single isomer, unassigned) [Compound 128]  Full length human CDC7 protein co-expressed with DBF4 (Homo sapiens)               IC50  1 to 10 nM

Could I get IC50 for every one of these entries?
1. O=C1NC2(CCC2)CN2CCOc3c(-c4cn[nH]c4)sc1c32 [Compound 51]
2. O=C1NC[C@H](CO)N2CCCc3c(-c4cn[nH]c4)sc1c32 [Compound 87]
3. CC1(C)NC(=O)c2sc(-c3ccnc4ccoc34)c3c2N1CCO3 [Compound 7]
4. C[C@H]1CNC(=O)c2sc(-c3ccncc3)c3c2N1CCO3 [Compound 24]
5. COC1CN(C[C@H]2CN3CC(F)(F)Cc4c(-c5cn[nH]c5)sc(c43)C(=O)N2)C1 [Compound 141]
6. O=C1N[C@@H](COC(F)F)CN2CC(F)(F)Cc3c(-c4cn[nH]c4)sc1c32 [Compound 142]
7. CC(C)(O)C[C@H]1CN2CC(F)(F)Oc3c(-c4cn[nH]c4)sc(c32)C(=O)N1 [Compound 116]
8. CC1(C)NC(=O)c2sc(-c3ccncn3)c3c2N1CCCN3 [Compound 1]

< 1 nM
< 1 nM
> 10 nM
1 to 10 nM
1 to 10 nM
< 1 nM
< 1 nM
< 1 nM

Please state, for each entry, its recorded IC50.
1. COC[C@H]1CN2C[C@H](F)Cc3c(-c4cn[nH]c4)sc(c32)C(=O)N1 (single isomer, unassigned) [Compound 126]
2. COC(=O)C[C@@H]1CNC(=O)c2sc(-c3cn[nH]c3)c3c2N1CCO3 [Compound 60]
3. O=C1N[C@H](C2CCCCO2)CN2CC(F)(F)Cc3c(-c4cn[nH]c4)sc1c32 (single isomer, unassigned) [Compound 137]
4. N#CC[C@@H]1CNC(=O)c2sc(-c3cn[nH]c3)c3c2N1CCC3 [Compound 97]
5. COC(=O)[C@@H]1CN2C(=O)COc3c(-c4cn[nH]c4)sc(c32)C(=O)N1 [Compound 53]

1: < 1 nM; 2: 1 to 10 nM; 3: > 10 nM; 4: < 1 nM; 5: 1 to 10 nM

// input: 2 molecules below; output: IC50 for each
1. O=C1NC(C2CC(F)(F)C2)CN2CC(F)(F)Cc3c(-c4cn[nH]c4)sc1c32 (single isomer, unassigned) [Compound 113]
2. O=C1N[C@@H](CO)CN2CCOc3c(-c4cn[nH]c4)sc1c32 [Compound 48]

1. < 1 nM
2. < 1 nM

###

# measurement_target: Full length human CDC7 protein co-expressed with DBF4 (Homo sapiens, UniProt O00311)
# Construct: Full length human CDC7 protein co-expressed with DBF4; purchased SignalChem (China)
# Sequence (O00311 whole entry): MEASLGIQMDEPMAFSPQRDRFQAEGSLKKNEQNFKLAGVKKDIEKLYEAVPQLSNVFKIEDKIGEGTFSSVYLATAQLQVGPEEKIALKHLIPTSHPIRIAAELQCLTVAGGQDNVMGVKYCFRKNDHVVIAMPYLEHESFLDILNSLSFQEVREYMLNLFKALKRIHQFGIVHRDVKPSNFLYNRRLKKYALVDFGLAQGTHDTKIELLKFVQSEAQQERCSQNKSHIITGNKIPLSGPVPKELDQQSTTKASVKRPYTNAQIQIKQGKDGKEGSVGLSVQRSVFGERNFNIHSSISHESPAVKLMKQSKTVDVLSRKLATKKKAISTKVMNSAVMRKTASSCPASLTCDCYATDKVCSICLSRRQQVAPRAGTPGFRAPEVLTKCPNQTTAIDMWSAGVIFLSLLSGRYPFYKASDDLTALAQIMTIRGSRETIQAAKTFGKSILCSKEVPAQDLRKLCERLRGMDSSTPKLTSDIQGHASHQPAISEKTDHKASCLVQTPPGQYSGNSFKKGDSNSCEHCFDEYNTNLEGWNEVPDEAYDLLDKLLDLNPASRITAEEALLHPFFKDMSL
# Sequence (Q9UBU7 whole entry partner): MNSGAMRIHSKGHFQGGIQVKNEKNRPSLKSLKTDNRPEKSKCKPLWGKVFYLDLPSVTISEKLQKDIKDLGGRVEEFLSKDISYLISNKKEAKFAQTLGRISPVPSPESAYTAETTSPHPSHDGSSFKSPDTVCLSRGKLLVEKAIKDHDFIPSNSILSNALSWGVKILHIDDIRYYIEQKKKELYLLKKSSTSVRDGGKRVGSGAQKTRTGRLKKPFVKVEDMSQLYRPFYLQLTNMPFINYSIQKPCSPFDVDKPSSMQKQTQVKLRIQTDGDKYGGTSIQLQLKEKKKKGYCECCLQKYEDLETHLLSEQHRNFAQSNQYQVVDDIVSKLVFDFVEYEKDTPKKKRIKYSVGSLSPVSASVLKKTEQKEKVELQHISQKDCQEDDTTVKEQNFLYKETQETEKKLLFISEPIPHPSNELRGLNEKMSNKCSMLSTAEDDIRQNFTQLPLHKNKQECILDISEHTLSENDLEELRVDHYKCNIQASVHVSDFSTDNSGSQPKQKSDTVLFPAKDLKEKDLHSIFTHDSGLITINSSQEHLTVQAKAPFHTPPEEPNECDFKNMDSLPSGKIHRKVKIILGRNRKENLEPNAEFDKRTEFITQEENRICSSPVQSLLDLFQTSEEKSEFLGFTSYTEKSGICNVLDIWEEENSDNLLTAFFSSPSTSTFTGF
# protocol_details: CDC7 kinase biochemical assay (ADP-Glo, PDKtide substrate)
# measurement_setup: 0.1 nM CDC7/DBF4, 1 uM ATP, 10 uM PDKtide, 4 h; read-out: CDC7 ADP-Glo PDKtide IC50
pIC50: −log10 of the molar value.
recorded_endpoint: pIC50

Answered examples (5):
> print(dat)
                                   compound        result
1  Cc1n[nH]cc1-c1sc2c3c1OCCN3C[C@H](C)NC2=O  8.00 to 9.00
2  O=C1N[C@H](C2CCC2)CN2CCOc3c(-c4ccncc4)sc1c32        > 9.00
3  O=C1N[C@H](C23CCC(CC2)O3)CN2CC(F)(F)Cc3c(-c4cn[nH]c4)sc1c32 (single isomer, unassigned)        < 8.00
4   CC1(C)NC(=O)c2sc(-c3cn[nH]c3)c3c2N1CCO3        > 9.00
5  CC1(C)NC(=O)c2sc(-c3ccnc4[nH]ncc34)c3c2N1CCO3  8.00 to 9.00

Give pIC50 for each listed item.
1. COC[C@@H]1CNC(=O)c2sc(-c3cn[nH]c3)c3c2N1CCO3
2. O=C1NC[C@@H](COCc2ccccc2)N2CCOc3c(-c4cn[nH]c4)sc1c32
3. O=C1NC[C@@H](CO)N2CCOc3c(-c4cn[nH]c4)sc1c32

1. > 9.00
2. 8.00 to 9.00
3. > 9.00

###

# measurement_target: Full length human CDC7 protein co-expressed with DBF4 (Homo sapiens)
# Construct: Full length human CDC7 protein co-expressed with DBF4; purchased SignalChem (China)
# protocol_details: CDC7 kinase biochemical assay (ADP-Glo, PDKtide substrate)
# measurement_setup: 0.1 nM CDC7/DBF4, 1 uM ATP, 10 uM PDKtide, 4 h; read-out: CDC7 ADP-Glo PDKtide IC50
pIC50: −log10 of the molar value.
Task for the reader: assign each of the following compounds its reported pIC50.

Below: 8 compounds and their reported pIC50.
> print(dat)
                                   compound  recorded.endpoint        result
1  CC(C)(O)C[C@@H]1CNC(=O)c2sc(-c3cn[nH]c3)c3c2N1CCO3              pIC50        > 9.00
2  COC[C@@H]1CN2CC(F)(F)Cc3c(-c4cn[nH]c4)sc(c32)C(=O)N1              pIC50        > 9.00
3  O=C1NC[C@H](CN2CCC2)N2CCOc3c(-c4cn[nH]c4)sc1c32              pIC50  8.00 to 9.00
4  O=C1NC[C@@H](C2CCOCC2)N2CCOc3c(-c4cn[nH]c4)sc1c32 (single isomer, unassigned)              pIC50        > 9.00
5  O=C1NC(C2CC(F)(F)C2)CN2CCOc3c(-c4cn[nH]c4)sc1c32 (single isomer, unassigned) [Compound 112]              pIC50        > 9.00
6  COC[C@@H]1CN2CCOc3c(-c4cn[nH]c4)sc(c32)C(=O)N1              pIC50        > 9.00
7  N#CC[C@@H]1CNC(=O)c2sc(-c3cn[nH]c3)c3c2N1CCO3              pIC50        > 9.00
8  COC[C@H]1CN2CC(F)(F)Cc3c(-c4cn[nH]c4)sc(c32)C(=O)N1              pIC50        > 9.00

Okay, here is my list. What is pIC50 for each of these?
1. O=C1NC[C@@H](CC2(O)CC2)N2CCCc3c(-c4cn[nH]c4)sc1c32
2. O=C1NC[C@H](CN2CCC2)N2CCCc3c(-c4cn[nH]c4)sc1c32
3. O=C1N[C@@H]([C@H]2CCCO2)CN2CC(F)(F)Cc3c(-c4cn[nH]c4)sc1c32 (single isomer, unassigned)
4. Cc1cnn(C[C@H]2COc3c(-c4cn[nH]c4)sc4c3N2CCNC4=O)c1
5. Cc1cnn(C[C@H]2CN3CCOc4c(-c5cn[nH]c5)sc(c43)C(=O)N2)c1
6. CC1(C)NC(=O)c2sc(-c3ccnc(N)c3)c3c2N1CCO3
7. C[C@H]1CN2CCOc3c(-c4cn[nH]c4)sc(c32)C(=O)N1

1: > 9.00; 2: 8.00 to 9.00; 3: > 9.00; 4: 8.00 to 9.00; 5: > 9.00; 6: 8.00 to 9.00; 7: > 9.00

// each listed compound needs a value for pIC50
1. O=C1NC[C@H](CO)N2CCOc3c(-c4ccncc4)sc1c32
2. O=C1NC(C2CCCCO2)CN2CCCc3c(-c4cn[nH]c4)sc1c32 (single isomer, unassigned) [Compound 107]
3. C[C@H]1CN2CCOc3c(-c4ccnc5[nH]ccc45)sc(c32)C(=O)N1
4. O=C1NC[C@@H](CN2CCC2)N2CCOc3c(-c4cn[nH]c4)sc1c32
5. CCC(=O)C[C@@H]1CNC(=O)c2sc(-c3cn[nH]c3)c3c2N1CCC3
6. COC[C@H]1CNC(=O)c2sc(-c3cn[nH]c3)c3c2N1CCC3
7. CC1(C)NC(=O)c2sc(-c3ccnc4[nH]ccc34)c3c2N1CCO3

1. > 9.00
2. > 9.00
3. > 9.00
4. 8.00 to 9.00
5. 8.00 to 9.00
6. 8.00 to 9.00
7. 8.00 to 9.00

Hello, the source for this data is patent US20230101747A1, in case you need it.
